# Test system: HOP-92
# ASSAY METHOD TEXT: Cytotoxicity against Homo sapiens (human) HOP92 cells after 48 hr by sulforhodamine B assay
# Type: functional
# CONDITION: HOP-92, 48 h
READOUT LABEL: GI50 (µM)
Please respond with the number in µM and leave the unit unwritten.

Would you please look over these solved cases?
ClCc1cccc(Cn2cnc3c(Cl)nc(Cl)nc32)c1 :: 1.82
ClCc1ccccc1Cn1cnc2ncnc(Cl)c21 :: 4.36
ClCc1ccc(Cn2cnc3c(Cl)ncnc32)cc1 :: 6.02

Consider now this further compound.
IN: Reported GI50, compound ClCc1cccc(Cn2cnc3c(Cl)ncnc32)c1 : ____
OUT: 2.45

* * *

# Tested on: NCI-H522
# ASSAY METHOD TEXT: Cytotoxicity against Homo sapiens (human) NCI-H522 cells after 48 hr by sulforhodamine B assay
# Type: functional
# CONDITION: NCI-H522, 48 h
READOUT LABEL: TGI (µM)
Use µM as the unit, but write only the number.

Take a look at these entries with their results.
ClCc1ccccc1Cn1cnc2c(Cl)ncnc21 :: 7.24
ClCc1ccc(Cn2cnc3c(Cl)nc(Cl)nc32)cc1 :: 46.8
ClCc1ccccc1Cn1cnc2nc(Cl)nc(Cl)c21 :: 7.24
Nc1nc(Cl)c2ncn(Cc3ccc(CCl)cc3)c2n1 :: 25.7

IN: Param readout = TGI; param system = NCI-H522; param query = Nc1nc(Cl)c2ncn(Cc3ccccc3CCl)c2n1 ; response: value
OUT: 9.33

IN: Repeat for the following compound: ClCc1cccc(Cn2cnc3c(Cl)nc(Cl)nc32)c1
OUT: 5.37

* * *

# Tested on: OVCAR-8
# ASSAY METHOD TEXT: Cytotoxicity against Homo sapiens (human) OVCAR8 cells after 48 hr by sulforhodamine B assay
# Type: functional
# CONDITION: OVCAR-8, 48 h
Reported GI50 values for the following compounds.
Your answer is read as µM, so omit the unit and give the number.

ClCc1ccc(Cn2cnc3c(Cl)ncnc32)cc1 :: 3.02

IN: GI50 for ClCc1ccc(Cn2cnc3nc(Cl)nc(Cl)c32)cc1 ?
OUT: 1.99

IN: Next compound: ClCc1cccc(Cn2cnc3ncnc(Cl)c32)c1
OUT: 3.09

* * *

Measured TGI accompanies every entry in the list below.
# Tested on: HCT-116
# ASSAY METHOD TEXT: Cytotoxicity against Homo sapiens (human) HCT116 cells after 48 hr by sulforhodamine B assay
# Format: functional
# CONDITION: HCT-116, 48 h

Example entries begin here.
ClCc1cccc(Cn2cnc3c(Cl)ncnc32)c1 :: 3.09 µM
ClCc1ccccc1Cn1cnc2ncnc(Cl)c21 :: 4.07 µM
ClCc1ccc(Cn2cnc3nc(Cl)nc(Cl)c32)cc1 :: 1.24 µM

# next compound below
IN: Form field: TGI recorded for ClCc1cccc(Cn2cnc3ncnc(Cl)c32)c1 with HCT-116 (enter value)
OUT: 5.24 µM

* * *

# System: OVCAR-5
# ASSAY METHOD TEXT: Cytotoxicity against Homo sapiens (human) OVCAR5 cells after 48 hr by sulforhodamine B assay
# Assay type: functional
# CONDITION: OVCAR-5, 48 h
Assign TRUE to entries whose TGI meets or exceeds 4 µM; assign FALSE to the rest.

Solved entries:
ClCc1ccc(Cn2cnc3ncnc(Cl)c32)cc1 :: TRUE
ClCc1cccc(Cn2cnc3nc(Cl)nc(Cl)c32)c1 :: FALSE
ClCc1ccc(Cn2cnc3c(Cl)nc(Cl)nc32)cc1 :: TRUE
ClCc1ccccc1Cn1cnc2ncnc(Cl)c21 :: TRUE

IN: Item ClCc1ccccc1Cn1cnc2c(Cl)nc(Cl)nc21 with TGI of 4 µM or above?
OUT: FALSE

IN: What do you get for ClCc1ccc(Cn2cnc3nc(Cl)nc(Cl)c32)cc1 ?
OUT: TRUE

IN: Lookup Nc1nc(Cl)c2ncn(Cc3ccc(CCl)cc3)c2n1
OUT: TRUE
